Assay Info: Induction of apoptosis in human EPG85-257P cells assessed as normal cells after 24 hrs by comet assay; note: test concentration or dose not given here
Assay type: functional
Kindly supply the reported Activity values for the records listed here.
One number for each entry, in %.

Known results for compounds:
Entry C=C(C)[C@@H]1CC[C@]2(C(=O)O)CC[C@]3(C)[C@H](CC[C@@H]4[C@@]5(C)CC[C@H](OC(=O)[C@@H](N)Cc6ccccc6)C(C)(C)[C@@H]5CC[C@]43C)[C@@H]12 : reported Activity = ? 97.5

Now consider C=C(C)[C@@H]1CC[C@]2(C(=O)O)CC[C@]3(C)[C@H](CC[C@@H]4[C@@]5(C)CC[C@H](OC(=O)[C@@H](N)CC)C(C)(C)[C@@H]5CC[C@]43C)[C@@H]12 and answer again. 98.3

Now consider C=C(C)[C@@H]1CC[C@]2(COC(=O)[C@@H](N)CCCCN)CC[C@]3(C)[C@H](CC[C@@H]4[C@@]5(C)CC[C@H](OC(=O)[C@@H](N)CCCCN)C(C)(C)[C@@H]5CC[C@]43C)[C@@H]12 and answer again. 0

Now consider C=C(C)[C@@H]1CC[C@]2(COC(=O)CN)CC[C@]3(C)[C@H](CC[C@@H]4[C@@]5(C)CC[C@H](O)C(C)(C)[C@@H]5CC[C@]43C)[C@@H]12 and answer again. 90.2

// moving on: another record for Activity
Entry C=C(C)[C@@H]1CC[C@]2(C(=O)O)CC[C@]3(C)[C@H](CC[C@@H]4[C@@]5(C)CC[C@H](O)C(C)(C)[C@@H]5CC[C@]43C)[C@@H]12 : reported Activity = ? 96

====

Assay Info: Induction of apoptosis in human EPG85-257P cells assessed as normal cells after 24 hrs by comet assay; note: test concentration or dose not given here
Format: functional
Kindly supply the reported Activity values for the records listed here.
Answers are plain numbers, in %.

Entry C=C(C)[C@@H]1CC[C@]2(COC(=O)[C@@H](N)CCSC)CC[C@]3(C)[C@H](CC[C@@H]4[C@@]5(C)CC[C@H](OC(=O)[C@@H](N)CCSC)C(C)(C)[C@@H]5CC[C@]43C)[C@@H]12 : reported Activity = ? 84.9

Go through the items and report each one's Activity.
1. C=C(C)[C@@H]1CC[C@]2(CO)CC[C@]3(C)[C@H](CC[C@@H]4[C@@]5(C)CC[C@H](O)C(C)(C)[C@@H]5CC[C@]43C)[C@@H]12
2. C=C(C)[C@@H]1CC[C@]2(COC(=O)[C@@H](N)Cc3ccccc3)CC[C@]3(C)[C@H](CC[C@@H]4[C@@]5(C)CC[C@H](OC(=O)[C@@H](N)Cc6ccccc6)C(C)(C)[C@@H]5CC[C@]43C)[C@@H]12
3. C=C(C)[C@@H]1CC[C@]2(COC(=O)[C@H](C)N)CC[C@]3(C)[C@H](CC[C@@H]4[C@@]5(C)CC[C@H](O)C(C)(C)[C@@H]5CC[C@]43C)[C@@H]12
4. C=C(C)[C@@H]1CC[C@]2(COC(=O)[C@H](C)N)CC[C@]3(C)[C@H](CC[C@@H]4[C@@]5(C)CC[C@H](OC(=O)[C@H](C)N)C(C)(C)[C@@H]5CC[C@]43C)[C@@H]12
5. C=C(C)[C@@H]1CC[C@]2(C(=O)O)CC[C@]3(C)[C@H](CC[C@@H]4[C@@]5(C)CC[C@H](OC(=O)[C@H](C)N)C(C)(C)[C@@H]5CC[C@]43C)[C@@H]12

1: 99.5; 2: 91; 3: 58; 4: 0; 5: 98.6
